PROTOCOL NOTES: photoluminescence quantum yield (fraction); solvent given as SMILES
EXPERIMENTAL CONTEXT: in ClCCl
OBSERVED PROPERTY: photoluminescence quantum yield
Lab note: jot the number down without any unit.

Illustrative cases are given below, each with its answer.
CHEMICAL SMILES	photoluminescence quantum yield
Cc1cc(C)c(-c2cc(-c3c(C)cc(C)cc3C)c3ccc4c(-c5c(C)cc(C)cc5C)cc(-c5c(C)cc(C)cc5C)c5ccc2c3c54)c(C)c1	0.28
c1ccc2nc3cccc(-c4ccc(-n5c6ccccc6c6ccccc65)cc4)c3cc2c1	0.253

Which photoluminescence quantum yield is listed for `CCc1c(C)c2n(c1C)[B-](F)(F)[N+]1=C(NCc3ccc(OC)cc3)C=CC1=C2C` ? 0.61

----------
PROTOCOL NOTES: photoluminescence quantum yield (fraction); solvent given as SMILES
EXPERIMENTAL CONTEXT: in CO
OBSERVED PROPERTY: photoluminescence quantum yield
Lab note: jot the number down without any unit.

Illustrative cases are given below, each with its answer.
> print(dat)
                                   compound  quantitative.result
1  O=C1c2ccc3c4ccc5c6c(ccc(c7ccc(c2c37)C(=O)N1c1ccncc1)c64)C(=O)N(c1ccncc1)C5=O                0.206
2  COC(=O)C(NC(=O)OC(C)(C)C)c1ccc2oc(-c3ccc(OC(=O)c4ccccc4)cc3OC(=O)c3ccccc3)nc2c1 (centres undefined)                0.002
3  CN(C)c1ccc(/C=C2\CC/C(=C\c3ccc(C#N)cc3)C2=O)cc1               0.0027

# next compound below
Which photoluminescence quantum yield is listed for `CCCCN1c2ccccc2Sc2cc(/C=C/C3=Nc4ccc5ccccc5c4C3(C)C)ccc21` ? 0.01

----------
PROTOCOL NOTES: photoluminescence quantum yield (fraction); solvent given as SMILES
EXPERIMENTAL CONTEXT: in Cc1ccccc1
Decision: photoluminescence quantum yield beneath 0.2 gives t; photoluminescence quantum yield meeting or exceeding 0.2 gives f.

Previously resolved entries follow.
COMPOUND	CATEGORY LABEL
N#Cc1ccc2c(c1)CCc1nc(-c3ccc([N+](=O)[O-])cc3)c3c(c1-2)CCc1cc(C#N)ccc1-3	t
COC(=O)C(Cc1ccc2oc(-c3ccc(N(C)c4ccccc4)cc3)nc2c1)NC(=O)OC(C)(C)C (stereo not given)	f
CCn1c2ccccc2c2cc(/C=C/c3cc(/C=C/c4ccc5c(c4)c4ccccc4n5CC)ncn3)ccc21	t

Quick check: does `COc1cc(N(c2ccccc2)c2ccccc2)ccc1C=C(C#N)C#N` have photoluminescence quantum yield under 0.2? t

Quick check: does `COCCC1=Cc2nc1ccc1[nH]c(cc1CCOC)c1nc(c(N3C(=O)CCCC3=O)cc3[nH]c2cc3CCOC)C(CCOC)=C1` have photoluminescence quantum yield under 0.2? f

Quick check: does `CCC1=C(C)C2=C(c3ccc(-c4c5ccccc5c(-c5ccccc5)c5ccccc45)cc3)c3c(C)c(CC)c(C)n3[B-](F)(F)[N+]2=C1C` have photoluminescence quantum yield under 0.2? f

Quick check: does `COC(=O)/C(C#N)=c1/cc/c(=c2/cc/c(=C(\C#N)C(=O)OC)s2)s1` have photoluminescence quantum yield under 0.2? t

Quick check: does `CC(C)(C)c1ccc(C(C)(C)C)c(N2C(=O)c3cccc4c(-c5ccc(-c6ccc([N+](=O)[O-])cc6)s5)ccc(c34)C2=O)c1` have photoluminescence quantum yield under 0.2? t

Quick check: does `COc1cccc(C2=CC3=C(c4c(C)cc(C)cc4C)c4cc(-c5cccc(OC)c5)c(-c5cccc(OC)c5)n4[B-](F)(F)[N+]3=C2c2cccc(OC)c2)c1` have photoluminescence quantum yield under 0.2? f

Quick check: does `FC(F)(F)c1cc2n(n1)[B-]1(c3ccccc3Oc3ccccc31)[n+]1ccc3ccccc3c1-2` have photoluminescence quantum yield under 0.2? t

Quick check: does `Cc1ccccc1/C(C#N)=C/c1ccc(N(C)C)cc1` have photoluminescence quantum yield under 0.2? t

Quick check: does `CC(C)(C)c1ccc2c(c1)sc1[n+]2[B-](F)(F)n2c(c3cccc4c(Br)ccc2c43)=N1` have photoluminescence quantum yield under 0.2? f
